TGT: Thymidylate synthase (Lactobacillus casei, UniProt P00469)
Sequence (P00469 whole entry): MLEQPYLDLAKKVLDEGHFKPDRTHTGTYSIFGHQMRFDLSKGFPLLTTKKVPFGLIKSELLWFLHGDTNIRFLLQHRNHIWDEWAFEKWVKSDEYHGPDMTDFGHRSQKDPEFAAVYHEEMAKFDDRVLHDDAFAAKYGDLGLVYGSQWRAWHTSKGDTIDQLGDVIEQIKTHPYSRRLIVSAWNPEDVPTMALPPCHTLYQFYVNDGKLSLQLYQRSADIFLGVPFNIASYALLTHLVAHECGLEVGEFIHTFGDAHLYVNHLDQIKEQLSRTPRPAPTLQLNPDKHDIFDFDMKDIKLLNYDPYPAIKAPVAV
ASSAY_COMMENT: The apparent association constant (Ki) with dTMP synthetase enzyme from chick embryo in the absence of CH2-H4 folate was evaluated
ASSAY_READOUT: pKi
Interpret pKi as the negative base-10 log of the concentration measured in mol/L.

For Thymidylate synthase (Lactobacillus casei, UniProt P00469), provide pKi of `O=c1nc(NO)ccn1[C@H]1C[C@H](O)[C@@H](COP(=O)(O)O)O1` please. 5.10
